assay comment: RPMI8226 myeloma cell viability, profiling panel, resazurin fluorescence, basal, 24 h, PK04 Diversity Set (AID 1180);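 note: RPMI8826 multiple myeloma cell line at 5000 cells per well; test concentration not given here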
particulars: higher = more signal
Criterion: z-score meeting or surpassing 0.003. Met: Criterion met. Not met: Criterion not met.

compound	category
C#CCN(CC1=CCCCC1)[C@H](c1ccccc1Br)[C@@H](O)Cc1ccccc1	Criterion not met
C=CCC(OC(C)=O)[C@@H]1[C@@H](N(Cc2ccc(-c3cccc(C(F)(F)F)c3)o2)C(=O)Cc2ccc(F)cc2)c2cc(OCCCO)ccc2N1C(=O)Cc1ccc(OC)cc1 (some centres not stated)	Criterion met
COc1ccc(C(=O)Nc2ccc(CN3C(=O)[C@@]4(O[C@@H](CCO)[C@H]([Si](C)(C)c5ccc(OC)cc5)[C@H]4C)c4ccccc43)cc2)cc1	Criterion not met
CC(C)(C)C(=O)N[C@@H](c1ccc(Cl)cc1)[C@]1(C)C[C@H]1C1CCCCC1	Criterion not met
C=CCC(OC(C)=O)[C@@H]1[C@@H](N(Cc2ccc(-c3cccc(C(F)(F)F)c3)o2)C(=O)c2ccc(-c3ccccc3)cc2)c2cc(OCCCO)ccc2N1C(=O)c1ccc(-c2ccccc2)cc1 (some centres not stated)	Criterion met
O=C1C2C=CC(C(O)c3ccc(F)cc3)N(Nc3ccccc3F)C2C(=O)N1c1ccccc1 (configuration not stated)	Criterion not met

Okay, now this compound:
# check: z-score of O=C(NCc1ccccc1)[C@@]1(CCS(=O)(=O)c2ccccc2)N=C(c2ccc(OCCCO)cc2)O[C@H]1c1ccccc1 is greater than or equal to 0.003
Criterion met

====

System: Sam68 (KHDRBS1)
assay comment: Sam68 small-molecule binders, primary screen, biochemical, small-molecule microarray, 635 nm fluorescence (AID 1125);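 note: score merges 667 nm channel intensity with signal to noise over triplicate slides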
particulars: small-molecule microarray binding, higher = more signal
quantity measured: composite z-score
Answers are plain numbers.

For the 7 molecules below, give their composite z-score values.
1. O=C1C2C=CC(C(O)C(c3ccccc3)c3ccccc3)N(n3cnnc3)C2C(=O)N1Cc1ccccc1 (stereo unspecified)
2. COc1ccc([Si](C)(C)[C@@H]2[C@@H](CCO)O[C@]3(C(=O)N(Cc4ccc(N5C(=O)COc6ccccc65)cc4)c4ccccc43)[C@H]2C)cc1
3. CN1C(=O)C2C=CC(C(O)Cc3ccccc3)N(Nc3ccccc3)C2C1=O (stereo unspecified)
4. [N-]=[N+]=NCc1ccccc1[C@@H]1OC(c2ccc(OCCCO)cc2)=N[C@]1(CCS(=O)(=O)c1ccccc1)C(=O)NCc1ccccc1
5. COC(=O)C(CC#Cc1ccc2c(c1)[C@]1(C(=O)N2)[C@H](c2ccc(O)cc2)N2[C@H](c3ccccc3)[C@H](c3ccccc3)OC(=O)[C@H]2[C@@H]1C(=O)Nc1nc2ccccc2s1)C(=O)OC
6. N#Cc1ccc(NN2C(C(O)c3c(F)cccc3Cl)C=CC3C(=O)N(c4ccccc4)C(=O)C32)cc1 (stereo unspecified)
7. CCOC(=O)[C@H]1C/C=C/C[C@H](C(=O)OCC)C(=O)O[C@H]2[C@@H](OC)O[C@H](CO)[C@@H](OC(=O)Nc3ccc(C#N)cc3)[C@@H]2OC1=O

1.3
1.33
-0.0158
1.3
1.31
1.29
0.171

====

assay comment: P. aeruginosa biofilm formation inhibitors, primary screen, PAO1 strain, BacTiter-Glo luminescence, LB-PBS (AID 1144)
particulars: 12 h, higher = more signal
quantity measured: z-score
Numbers only.

Some entries whose results are on file:
compound	quantity measured	obs value
CC1(C)[C@@H]2CC(C(O)C3C=CC4C(=O)N(c5ccccc5)C(=O)C4N3Nc3ccccc3)=C[C@H]1C2 (stereo partly drawn)	z-score	-0.959
COc1ccc(C#Cc2ccc3c(c2)[C@]2(C(=O)N3)[C@H](c3ccccc3OCCO)N3[C@H](c4ccccc4)[C@H](c4ccccc4)OC(=O)[C@H]3[C@@H]2C(=O)O)cc1	z-score	-1.66

Dear colleague, I am looking for the recorded z-score of the following compound: COC(=O)c1c(CC[C@@H](CO)NC(=O)N[C@@H](C)Cn2cc(C3(O)CCCCC3)nn2)oc(C(C)=O)c1C(=O)OC
-1.04

====

target: Luciferin 4-monooxygenase (Photinus pyralis) (UniProt P08659)
Sequence (P08659 whole entry, looked up): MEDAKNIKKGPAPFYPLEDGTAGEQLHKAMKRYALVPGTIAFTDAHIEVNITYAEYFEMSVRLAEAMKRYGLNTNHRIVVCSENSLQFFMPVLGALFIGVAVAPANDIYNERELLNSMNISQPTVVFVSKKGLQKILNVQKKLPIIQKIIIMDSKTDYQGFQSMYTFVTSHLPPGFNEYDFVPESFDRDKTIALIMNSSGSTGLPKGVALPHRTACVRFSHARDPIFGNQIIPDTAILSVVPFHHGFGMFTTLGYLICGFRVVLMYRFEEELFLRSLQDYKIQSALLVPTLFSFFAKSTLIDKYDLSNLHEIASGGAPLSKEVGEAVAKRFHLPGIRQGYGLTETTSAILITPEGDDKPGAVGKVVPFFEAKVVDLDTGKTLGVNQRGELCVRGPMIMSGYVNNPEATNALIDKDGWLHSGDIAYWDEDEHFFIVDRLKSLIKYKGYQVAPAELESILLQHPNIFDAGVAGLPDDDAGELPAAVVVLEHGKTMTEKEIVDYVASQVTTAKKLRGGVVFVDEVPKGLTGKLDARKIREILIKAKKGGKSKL
assay comment: firefly luciferase enzyme inhibitors, primary screen, biochemical, luminescence, purified enzyme, 2006 set (AID 1141);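 note: cell-free assay with purified firefly luciferase at 100 ng per well in PBS; test concentration not given here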
particulars: SteadyGlo luminescence, 30 min, called active from +8 up or from −8 down
Active and inactive are the calls of the source.
API: response.call in Yes = active, No = inactive

molecule	category
C=CCC(OC(C)=O)[C@@H]1[C@@H](N(Cc2ccc(-c3cccc(C(F)(F)F)c3)o2)C(=O)c2ccc(-c3ccccc3)cc2)c2cc(OCCCO)ccc2N1C(=O)c1ccc(-c2ccccc2)cc1 (stereo partly drawn)	No
O=C1O[C@@H](c2ccccc2)[C@@H](c2ccccc2)N2[C@@H](c3ccccc3OCCO)[C@]3(C(=O)Nc4ccc(C#CC5=CCCCC5)cc43)[C@@H](C(=O)Nc3nc4ccccc4s3)[C@H]12	No
CC(C)(C)OC(=O)CC[C@@]1(C(=O)NCCN2CCOCC2)N=C(c2ccc(OCCCO)cc2)O[C@@H]1c1ccccc1N=[N+]=[N-]	Yes
C=CCOC(=O)[C@H]1[C@@H]2C(=O)O[C@@H](c3ccccc3)[C@@H](c3ccccc3)N2[C@@H](c2ccc(OCCOC(=O)[C@@H]3C[C@@H]4C(=O)N[C@@H](CCCCN(C)C)C(=O)N4[C@@H]3c3ccc(O)cc3)cc2)[C@]12C(=O)Nc1ccc(I)cc12	No
C=C[C@H](COC(C)=O)N(C(=O)OC(C)(C)C)S(=O)(=O)c1ccc(Br)cc1	No
COC(=O)[C@@]1(Cc2ccccc2)[C@H]2c3cc(C(=O)N4CCCC4)n(Cc4nc5ccccc5[nH]4)c3C[C@H]2CN1C(=O)c1ccccc1	No
C=CCNC(=O)[C@H]1[C@@H]2C(=O)O[C@@H](c3ccccc3)[C@@H](c3ccccc3)N2[C@@H](c2ccc(OCCO)cc2)[C@]12C(=O)Nc1ccc(C#CC3=CCCCC3)cc12	No
Cc1ccc(S[C@]2(C(=O)NCC(C)C)CC(=O)N(Cc3cc(C(F)(F)F)cc(C(F)(F)F)c3)[C@@H]2c2ccc(CO)cc2I)cc1	No

Lab log entry: COC(=O)[C@@]1(Cc2ccc(F)cc2)[C@H]2c3cc(C(=O)N(C)C)n(Cc4ccc(S(C)(=O)=O)cc4)c3C[C@H]2CN1C(=O)c1ccccc1 — outcome as called in the assay?
No

Give the logged outcome of this assay for the following molecule: COc1ccc(CCNC(=O)[C@@H]2c3ccccc3C(=O)N(C3Cc4ccccc4C3)[C@H]2c2ccc(CO)cc2)cc1
No

Give the logged outcome of this assay for the following molecule: COc1cc(OC)c(C(O)C2C=CC3C(=O)NC(=O)C3N2Nc2ccc(Cl)cc2Cl)cc1Br (stereo not drawn)
No

Assay outcome for CCC(CC)C(O)C1C=CC2C(=O)N(C)C(=O)C2N1Nc1ccccc1 (stereo not drawn) : what was it?
No

I would be grateful if you could indicate the recorded call for O=C1OCCC/C=C\[C@H]2OC34C=CCN(CCN5CCOCC5)C(=O)[C@H]3N(CCCO)C(=O)[C@@H]4C12 (stereo partly drawn) .
No

====

Test system: wheat germ agglutinin (Triticum aestivum), Alexa647-labelled
assay comment: wheat germ agglutinin binders on compound microarrays, profiling panel, artefact control for SMM control-protein annotation, biochemical, small-molecule microarray, 635/667 nm fluorescence (AID 1140);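 note: score merges 667 nm feature emission with signal to noise over triplicate slides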
particulars: WGA-A647 binding, 635 nm fluorescence, higher = more signal
quantity measured: composite z-score
Answers are plain numbers.

# count of solved cases: 2
mol smiles	composite z-score
CC(C)(C)OC(=O)CC[C@]1(C(=O)O)N=C(c2ccc(OCCCO)cc2)O[C@H]1c1ccccc1N=[N+]=[N-]	0.963
COCC(=C=CC[C@@H](O)c1ccccc1OCCO)C[C@@H](O)c1cc(Cl)cc(Cl)c1O	0.289

Entry under review: C=C(COC)/C(=C/C[C@@H](OC(C)=O)c1ccc(CO)o1)c1cnc2ccccc2c1 . Reported composite z-score?
1.04

====

I'd be grateful if you could share measured composite z-score for these entries.
target: Follistatin (Homo sapiens)
assay comment: follistatin binders on small-molecule microarrays, primary screen, biochemical, small-molecule microarray, 635/667 nm fluorescence (AID 1132)
particulars: FST binding, 635 nm fluorescence, higher = more signal
One number for each entry.

Previously resolved entries follow.
compound	composite z-score
COCCOC(=O)N1C(=O)[C@@]2(c3cc(C#CC4=CCCCC4)ccc31)[C@H](C(=O)Nc1nc3ccccc3s1)[C@H]1C(=O)O[C@H](c3ccccc3)[C@H](c3ccccc3)N1[C@@H]2c1ccc(OCCO)cc1	1.18
NCCCCCNC(=O)[C@@H]1C[C@@H]2C(=O)NCC(=O)N2[C@@H]1c1ccc(O)cc1	1.51
O=C1O[C@H](c2ccccc2)[C@H](c2ccccc2)N2[C@H]1[C@@H](C(=O)NC[C@H](O)c1ccccc1)[C@]1(C(=O)Nc3ccccc31)[C@H]2c1ccc(OCCO)cc1	0.992
CCCN1C(=O)[C@]2(CCS(=O)(=O)c3ccccc3)N=C(c3ccc(OCCCO)cc3)O[C@@H]2c2ccccc21	0.958
C=CCNC(=O)[C@H]1[C@@H]2C(=O)O[C@@H](c3ccccc3)[C@@H](c3ccccc3)N2[C@@H](c2ccc(O)cc2)[C@]12C(=O)N(C(=O)OCCOC)c1ccc(C#CCNC(N)=O)cc12	1.44

// for each compound in input: emit composite z-score
1. Cc1ccc(C(C)CC(O)C2C=CC3C(=O)N(c4ccccc4)C(=O)C3N2Nc2ccc([N+](=O)[O-])cc2)o1 (stereo not drawn)
2. COc1cc2c(cc1OC)CN(C(=O)[C@@H]1[C@H]3C(=O)O[C@H](c4ccccc4)[C@H](c4ccccc4)N3[C@H](c3ccc(O)cc3)[C@@]13C(=O)Nc1ccc(C#CC4(O)CCCCCC4)cc13)CC2
3. O=C1c2ccccc2[C@](Cc2ccccc2I)(C(=O)NC2CC2)[C@H](c2ccc(CO)cc2)N1Cc1ccccc1
4. COc1cc(OC)c(C(O)C2C=CC3C(=O)NC(=O)C3N2Nc2ccc(Cl)cc2Cl)cc1Br (stereo not drawn)
5. C#CCN(Cc1ccccc1Br)C(/C=C/c1ccccc1)CO (stereo not drawn)
6. CC(C)OC(=O)C=C1C[C@@H](c2ccccc2C(F)(F)F)O[C@@H](c2ccccc2C(F)(F)F)O1
7. C=C[C@H](COC(C)=O)N(C(=O)OC(C)(C)C)S(=O)(=O)c1ccc(Br)cc1
8. C=CC[C@@]1(C(N)=O)N=C(c2ccc(OCCCO)cc2)O[C@@H]1c1ccccc1CN=[N+]=[N-]

[1.06, 1.14, 0.885, 0.677, -0.523, -0.0154, 0.867, 1.08]
